Experiment: viability loss with induced miR-34 in A549 – imaging, A549 dox-inducible miR-34, nuclei and caspase counts, primary screen (AID 1347080)
Details: A549 miR-34 inducible, Hoechst nuclei count, 48 h; measured here: total cells without miR-34 induction
Mark criterion met only for cell count values smaller than 7000; exact matches and larger values are criterion not met.

Compound: Cc1cn(-c2cc(NC(=O)c3ccc(C)c(Nc4nccc(-c5cccnc5)n4)c3)cc(C(F)(F)F)c2)cn1
Answer label: criterion met
//
Compound: N[C@@H](CSS(=O)(=O)O)C(=O)O
Answer label: criterion not met

Quick check: cell count of C[C@@H]1CC2C3CCC4=CC(=O)C=CC4(C)C3(F)[C@@H](O)CC2(C)C1(O)C(=O)CO (stereo not given in full) under 7000?
criterion not met

---

Experiment: drug combination growth inhibition, ovarian cancer – cell-based, oncology-focused library, rucaparib conditional, profiling panel (AID 1508598)
Settings: patient-derived ovarian cancer cells, CellTiter-Glo viability, 144 h; at 5 µM; OCI-P5x cells; with rucaparib 20 µM; 100% = cells with rucaparib alone
Active and inactive are the calls of the source.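 Rule for the calls: active = normalized viability below 100% at a tested concentration; inactive = the rest.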
Pick one and only one: active, inactive

These solved cases illustrate the format of a correct answer.
Molecule: Cn1cnc(=N)c2[nH]cnc21
Answer label: inactive

Molecule: COc1cc2nccc(Oc3ccc(NC(=O)Nc4cc(C)on4)c(Cl)c3)c2cc1OC
Answer label: active

Molecule: CN(NC(=O)CC(=O)NN(C)C(=S)c1ccccc1)C(=S)c1ccccc1
Answer label: active

Molecule: CNC(=O)c1cc(Oc2ccc(NC(=O)Nc3ccc(Cl)c(C(F)(F)F)c3)c(F)c2)ccn1
Answer label: active

Molecule: CN1CCN(CCOc2cc(OC3CCOCC3)c3c(Nc4c(Cl)ccc5c4OCO5)ncnc3c2)CC1
Answer label: active

Now consider a different molecule.
What was the test verdict on COc1cc(OC)c(/C=C/S(=O)(=O)Cc2ccc(OC)c(NCC(=O)O)c2)c(OC)c1 ?
active

---

Experiment: RCMB18 cell growth, single agent and combined, cisplatin and BGB IC40 combos (AID 1671462);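 note: cells exposed to compound for four days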
Settings: RCMB18 medulloblastoma cells, at 0.5 µM, stronger effect = higher value
Below, each entry is listed with its recorded inhibition.
Write it as a number; the unit % goes unstated.

Compound: Nc1ncnc2c1c(-c1cnc3[nH]ccc3c1)nn2C1CCCC1
Assay readout: inhibition
Meas value: 1.21
--
Compound: O=C(COc1cccc2c(=O)[nH]ccc12)c1ccccc1
Assay readout: inhibition
Meas value: -1.53
--
Compound: Cc1ccc2nc(NCCN)c3ncc(C)n3c2c1
Assay readout: inhibition
Meas value: 1.56
--
Compound: COc1cc(C=O)c([N+](=O)[O-])cc1OC
Assay readout: inhibition
Meas value: -0.87
--
Compound: CC(=O)Nc1nc(C)c(-c2ccc(Cl)c(S(=O)(=O)NCCO)c2)s1
Assay readout: inhibition
Meas value: 9.76
--
Compound: NC1CCC(N[C@@H]2C[C@H]2c2ccccc2)CC1 (stereo partly specified)
Assay readout: inhibition
Meas value: -11.5
--
Compound: O=c1cc(N2CCOCC2)oc2c(-c3cccc4c3sc3ccccc34)cccc12
Assay readout: inhibition
Meas value: -29.6
--
Compound: CO[C@H]1/C=C/O[C@@]2(C)Oc3c(C)c(O)c4c(O)c(c(/C=N\N5CCN(C6CCCC6)CC5)c(O)c4c3C2=O)NC(=O)/C(C)=C\C=C\[C@H](C)[C@H](O)[C@@H](C)[C@@H](O)[C@@H](C)[C@H](OC(C)=O)[C@@H]1C
Assay readout: inhibition
Meas value: -14.8
--
Compound: O=C(CCCCCCNC(=O)c1cnc(N(c2ccccc2)c2ccccc2Cl)nc1)NO
Assay readout: inhibition
Meas value: -4.94
--
Compound: COc1ccc(C(=O)CC2(O)C(=O)Nc3c(Cl)ccc(Cl)c32)cc1 (stereo unspecified)
Assay readout: inhibition
Meas value: -4.73

Endpoint output: inhibition of Cc1cn([C@@H]2O[C@H](CO)[C@@H](O)[C@@H]2F)c(=O)[nH]c1=O . Value?
-23.1

Same for O=C(/C=C/c1cccc(S(=O)(=O)Nc2ccccc2)c1)NO
32.4

Same for CCCCc1nc2cc(/C=C/C(=O)NO)ccc2n1CCN(CC)CC
35.2

Same for COc1ccc(C(=O)C2CCN(CC(=O)N(Cc3nc4c(c(=O)[nH]3)COCC4)CC3CC3)CC2)cc1
-19.3

Same for NCCOc1cc(C(=O)Nc2cc(OCCN)c3ccccc3n2)nc(C(=O)Nc2cc(OCCN)c3ccccc3n2)c1
-16.6

Same for COc1cc2ncnc(-n3nc(-c4ccccn4)nc3N)c2cc1OC
-14.5

Same for CN[C@@H]1CN(c2ccc3c(=O)c(C(=O)O)cn(-c4nccs4)c3n2)C[C@H]1OC
-5.3

Same for Nc1ccc(-c2ccc3ncc4ccc(=O)n(-c5cccc(C(F)(F)F)c5)c4c3c2)cn1
16.5

Same for c1cc(Nc2cc(C3CC3)[nH]n2)nc(Nc2ccc3nc[nH]c3c2)n1
73.8
